Below is a list of entries, each paired with its recorded TGI value.
System: SK-OV-3 ovarian
Assay: NCI tumour cell line growth inhibition, 384-well format
State the answer as a number, implicitly in µM.

Solved entries (count: 3):
molecule	measured.endpoint	assay.result
C[C@@H](C(=O)Nc1ccc(Cl)cc1)C1CCC(c2ccnc3ccc(F)cc23)CC1 (stereo not given in full)	TGI	42.7
CNC(=O)n1ccc2cc(Oc3ccnc(NC(=O)c4ccc(C5CCN(CCO)CC5)cc4)c3)c(OCCOC)cc21	TGI	3.62
COC1(C(=O)N[C@@H](C)c2ccc(-n3cc(F)cn3)nc2)CCC(c2nc(C)cc(Nc3cc(C)[nH]n3)n2)CC1 (stereo not given in full)	TGI	2.64

Observed TGI on SK-OV-3 ovarian for CC(C)NC[C@@H](C(=O)N1CCN(c2ncnc3c2[C@H](C)C[C@H]3O)CC1)c1ccc(Cl)cc1 , please.
23.6

Where do these numbers come from? They come from PubChem BioAssay (NCI).
